For each entry below, report its growth inhibition value.
test.description: NCI Yeast Anticancer Drug Screen. Data for the bub3 strain (AID 167)
test.parameters: S. cerevisiae bub3 mutant strain, at 5.0 µM (retest, dose inferred, filed as 0.5), active compounds read high
This is part of a sample that, as a whole, favours compounds with a hit. Of some 79,000 tested, about 15% had one in any assay.
Response body: numeric value in %, unit text excluded.

response.value for `COc1ccc2nc3ccccc3c(NCCCCN(C)CCCl)c2c1` (field: growth inhibition) = 46

get_value(item= `O=C(CBr)Nc1ccc(Cl)cc1` , readout=growth inhibition) returns 98

molecule `C1CN1[PH+](N1CC1)N1CC1.C1CN1[PH+](N1CC1)N1CC1.[I][Pt][I]` , growth inhibition observed: 2

So for `CC(C)(C)OOC(=O)/C=C\C(=O)OOC(C)(C)C` , the logged growth inhibition turned out to be 2

Form field growth inhibition, entry `CCC[CH2][Sn]1([CH2]CCC)[O]C(=O)c2cccc(OC)c2[O]1` : 94
